Provide the recorded inhibition for the entries that follow.
# measured-on: Fibroblast growth factor receptor 1 (Homo sapiens)
# experimental-setup: at 0.1 µM;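 note: values are reported as mean percent inhibition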
One number for each entry, in %.

Below, each entry is followed by its recorded inhibition result.
COc1ccccc1-c1cc(/C=C2\C(=O)Nc3ncc(Br)cc32)cc(Br)c1O | 3.85
CCOc1ccc2c(-c3ccnc(Nc4cc(OC)cc(C(F)(F)F)c4)n3)cnn2n1 | 4.3
Fc1cccc(COc2ccc(Nc3ncncc3C#Cc3ccccc3)cc2Cl)c1 | 2.88
Cc1ccc(-c2cc3c(NC(=O)C4CC4)ncnc3o2)cc1 | 7.46
CCS(=O)(=O)c1ccc(OC)c(Nc2ncc(-c3cccc(C(C)=O)c3)o2)c1 | 4.89

Lab note: each compound below needs its inhibition filled in.
1. NS(=O)(=O)c1ccc(N/N=C2\C(=O)Nc3ccc(C(=O)NCc4ccncc4)cc32)cc1
2. CN(C)CCNC(=O)Nc1ccc(N(C)c2ccnc(Nc3ccc(CS(C)(=O)=O)cc3)n2)cc1
3. COC(=O)Nc1nc2cc(Oc3ccc(NC(=O)Nc4ccccc4)cc3)ccc2[nH]1

Ans:
1. 3.12
2. 27.9
3. -5.22
